test system: Klebsiella pneumoniae; experiment: Antibacterial activity against Klebsiella pneumoniae ATCC BAA-1902 assessed as bacterial growth inhibition incubated for 20 hrs by CLSI based broth microdilution method; type: functional
Measure Name: MIC (µg/mL)
Answers are plain numbers, in µg/mL.

Illustrative cases are given below, each with its answer.
C[n+]1cc(-c2ccccc2)c(/C=C/c2ccc(C(C)(C)C)cc2)cc1-c1ccccc1.[I-] = 32
C[n+]1cc(-c2ccccc2)c(/C=C/c2ccc(N3CCCC3)cc2)cc1-c1ccc(C(C)(C)C)cc1.[I-] = 16
CCCCCOc1ccc(/C=C/c2cc(-c3ccccc3)c[n+](C)c2-c2ccccc2)cc1.[I-] = 8
C[n+]1cc(-c2ccccc2)cc(/C=C/c2cccc(Br)c2)c1-c1ccccc1.[I-] = 64
C[n+]1cc(-c2ccccc2)c(/C=C/c2ccc(N)cc2)cc1-c1ccc(C(C)(C)C)cc1.[I-] = 16

Would you mind giving MIC for every compound in the list below?
1. CCc1ccc(/C=C/c2cc(-c3ccc(C(C)(C)C)cc3)[n+](C)cc2-c2ccccc2C)cc1.[I-]
2. CC(C)c1ccc(/C=C/c2cc(-c3ccc4ccccc4c3)[n+](C)cc2-c2ccccc2)cc1.[I-]
3. CCc1ccc(/C=C/c2cc(-c3ccccc3)c[n+](C)c2-c2ccccc2)cc1.[I-]
4. C[n+]1cc(-c2ccccc2)cc(/C=C/c2ccc(Br)cc2)c1-c1ccccc1.[I-]
5. CCCCOc1ccc(/C=C/c2cc(-c3ccccc3)c[n+](C)c2-c2ccccc2)cc1.[I-]
6. CC(C)c1ccc(/C=C/c2cc(-c3ccccc3)c[n+](C)c2-c2ccccc2)cc1.[I-]
7. C[n+]1cc(-c2ccccc2)c(/C=C/c2ccc(N3CCCCC3)cc2)cc1-c1ccc(C(C)(C)C)cc1.[I-]

8
16
16
64
16
32
8

Provide the reported MIC of each entry below, same order.
1. CC(C)c1ccc(/C=C/c2cc(-c3ccc(C(C)(C)C)cc3)[n+](C)cc2-c2ccccc2)cc1.[I-]
2. C[n+]1cc(-c2ccccc2)c(/C=C/c2ccc(N3CCCCC3)cc2)cc1-c1ccc2ccccc2c1.[I-]

1: 8; 2: 16

// each compound listed below needs its MIC
1. CCCOc1ccc(/C=C/c2cc(-c3ccc(C(C)(C)C)cc3)[n+](C)cc2-c2ccccc2)cc1.[I-]
2. Cc1ccccc1-c1c[n+](C)c(-c2ccc(C(C)(C)C)cc2)cc1/C=C/c1ccc(N(C)C)cc1.[I-]

1. 8
2. 16

Hi team, please reply with MIC for each item in this list.
1. CCCCCCCOc1ccc(/C=C/c2cc(-c3ccccc3)c[n+](C)c2-c2ccccc2)cc1.[I-]
2. CN(C)c1ccc(/C=C/c2cc(-c3ccc(C(C)(C)C)cc3)[n+](C)cc2-c2ccccc2)cc1.[I-]
3. C[n+]1cc(-c2ccccc2)c(/C=C/c2ccc(F)cc2)cc1-c1ccccc1.[I-]

1. 8
2. 8
3. 32

* * *

test system: Enterococcus faecium; assay: Antibacterial activity against vancomycin-resistant Enterococcus faecium ATCC51559 assessed as bacterial growth inhibition incubated for 20 hrs by CLSI based broth microdilution method; assay type: functional
Measure Name: log10 MIC (log10 of the value in mg/L)
Scale: decimal log of MIC, MIC in mg/L.

Below, each entry is followed by its recorded log10 MIC result.
C[n+]1cc(-c2ccccc2)c(/C=C/c2ccc(O)cc2)cc1-c1ccc(C(C)(C)C)cc1.[I-] = 0.60
C[n+]1cc(-c2ccccc2)c(/C=C/c2ccc(N)cc2)cc1-c1ccc(C(C)(C)C)cc1.[I-] = 0.60
C[n+]1cc(-c2ccccc2)c(/C=C/c2ccc(C(C)(C)C)cc2)cc1-c1ccccc1.[I-] = 0.30
CCCCOc1ccc(/C=C/c2cc(-c3ccccc3)c[n+](C)c2-c2ccccc2)cc1.[I-] = 0.60
C[n+]1cc(-c2ccccc2)c(/C=C/c2ccc(F)cc2)cc1-c1ccc(C(C)(C)C)cc1.[I-] = 0.30

Look at each molecule and report its log10 MIC.
1. C[n+]1cc(-c2ccccc2)c(/C=C/c2ccc(N3CCCC3)cc2)cc1-c1ccc(C(C)(C)C)cc1.[I-]
2. C[n+]1cc(-c2ccccc2)cc(/C=C/c2ccc(Cl)cc2)c1-c1ccccc1.[I-]
3. Cc1ccccc1-c1c[n+](C)c(-c2ccc(C(C)(C)C)cc2)cc1/C=C/c1ccc(F)cc1.[I-]
4. C[n+]1cc(-c2ccccc2)c(/C=C/c2ccc(N3CCCCC3)cc2)cc1-c1ccc2ccccc2c1.[I-]
5. C[n+]1cc(-c2ccccc2)cc(/C=C/c2ccc(C(C)(C)C)cc2)c1-c1ccccc1.[I-]

1: 0.30; 2: 1.20; 3: 0.00; 4: 0.30; 5: 0.30

For each of the items listed, what is its log10 MIC?
1. C[n+]1cc(-c2ccccc2)cc(/C=C/c2ccc(F)cc2)c1-c1ccccc1.[I-]
2. CCCCCOc1ccc(/C=C/c2cc(-c3ccccc3)c[n+](C)c2-c2ccccc2)cc1.[I-]

1: 1.81; 2: 0.30

Hey, quick one: what's log10 MIC for each of these?
1. C[n+]1cc(-c2ccccc2)c(/C=C/c2ccc(F)cc2)cc1-c1ccccc1.[I-]
2. CN(C)c1ccc(/C=C/c2cc(-c3ccccc3)[n+](C)cc2-c2ccccc2)cc1.[I-]
3. C[n+]1cc(-c2ccccc2)cc(/C=C/c2cccc(Br)c2)c1-c1ccccc1.[I-]
4. C[n+]1cc(-c2ccccc2)c(/C=C/c2ccc(N)cc2)cc1-c1ccccc1.[I-]

1. 0.90
2. 1.20
3. 1.20
4. 1.81

For Cc1ccccc1-c1c[n+](C)c(-c2ccc(C(C)(C)C)cc2)cc1/C=C/c1ccc(C(C)(C)C)cc1.[I-] , what is its reported log10 MIC? -0.30
